Provenance of the data: patent US20230056135A1

tested on: HBV; assay: Antiviral activity in HepG2-NTCP infectious system; assay type: cell-based; conditions: Hepatitis B virus, 264 h, read-out: HBV DNA/rDNA EC50 (nM)
Observable: EC50 (nM)
State the answer as a number, implicitly in nM.

Input line: Which EC50 is listed for C#CCNC(=O)C(=O)c1c(C)c(C(=O)Nc2ccc(F)c(F)c2)n(CC#C)c1C [Compound 114] ?
Output line: 0.6

---

Provide the reported CC50 of each item.
assay: Cellular toxicity assay in HepG2 cells; format: cell-based; conditions: human, HepG2 cells; read-out: Cytotoxicity; CC50 (μM) HepG2

Input line: Which CC50 is listed for Cc1c(C(=O)C(=O)NCc2cn(CCCCCCn3cc(CNC(=O)C(=O)c4c(C)c(C(=O)Nc5ccc(F)c(F)c5)n(C)c4C)nn3)nn2)c(C)n(C)c1C(=O)Nc1ccc(F)c(F)c1 ?
Output line: > 100 µM

Input line: Which CC50 is listed for O=S(=O)(NC1CC2=C(C#CC3CC3)C(c3ccc(F)cc3Cl)N=C(c3nccs3)N2C1)C1CC1 (centres unmarked) ?
Output line: > 100 µM

Input line: Which CC50 is listed for Cc1c(C(=O)C(=O)NCc2cn(CCOCCOCC(COCCOCCN=[N+]=[N-])(COCCOCCN=[N+]=[N-])COCCOCCn3cc(CNC(=O)C(=O)c4c(C)c(C(=O)Nc5ccc(F)c(F)c5)n(C)c4C)nn3)nn2)c(C)n(C)c1C(=O)Nc1ccc(F)c(F)c1 ?
Output line: > 100 µM

Input line: Which CC50 is listed for Cc1c(C(=O)C(=O)NCc2cn(CCOCCOCC(COCCOCCn3cc(CNC(=O)C(=O)c4c(C)c(C(=O)Nc5ccc(F)c(F)c5)n(C)c4C)nn3)(COCCOCCn3cc(CNC(=O)C(=O)c4c(C)c(C(=O)Nc5ccc(F)c(F)c5)n(C)c4C)nn3)COCCOCCn3cc(CNC(=O)C(=O)c4c(C)c(C(=O)Nc5ccc(F)c(F)c5)n(C)c4C)nn3)nn2)c(C)n(C)c1C(=O)Nc1ccc(F)c(F)c1 ?
Output line: > 100 µM

Input line: Which CC50 is listed for Cc1c(C(=O)C(=O)NCCCB(O)O)c(C)n(C)c1C(=O)Nc1ccc(F)c(F)c1 ?
Output line: 98 µM

Input line: Which CC50 is listed for Cc1c(C(=O)C(=O)NCCCCCCCCO)c(C)n(C)c1C(=O)Nc1ccc(F)c(F)c1 ?
Output line: 63 µM

Input line: Which CC50 is listed for C#CCn1c(C)c(C(=O)C(=O)NC(C)(C)C#C)c(C)c1C(=O)Nc1ccc(F)c(F)c1 ?
Output line: > 100 µM

Input line: Which CC50 is listed for CCOC(=O)C1=C(CNCc2cn(CCCCCCCCn3cc(CNCC4=C(C(=O)OCC)C(c5ccc(F)cc5Br)N=C(c5nccs5)N4)nn3)nn2)NC(c2nccs2)=NC1c1ccc(F)cc1Br (centres unmarked) [Compound 17c] ?
Output line: 38.5 µM

---

Provide the reported CC50 of each item.
test: Cellular toxicity assay in human PBM cells; type: cell-based; conditions: human, human PBM cells; read-out: Cytotoxicity; CC50 (μM) PBM

Input line: Which CC50 is listed for C#CCn1c(C)c(C(=O)C(=O)NC(C)(C)C#C)c(C)c1C(=O)Nc1ccc(F)c(F)c1 ?
Output line: > 100 µM

Input line: Which CC50 is listed for Cc1c(C(=O)C(=O)NCc2cn(CCOCCOCC(COCCOCCN=[N+]=[N-])(COCCOCCn3cc(CNC(=O)C(=O)c4c(C)c(C(=O)Nc5ccc(F)c(F)c5)n(C)c4C)nn3)COCCOCCn3cc(CNC(=O)C(=O)c4c(C)c(C(=O)Nc5ccc(F)c(F)c5)n(C)c4C)nn3)nn2)c(C)n(C)c1C(=O)Nc1ccc(F)c(F)c1 ?
Output line: > 100 µM

Input line: Which CC50 is listed for Cc1c(C(=O)C(=O)NCCCN(CCCNC(=O)C(=O)c2c(C)c(C(=O)Nc3ccc(F)c(F)c3)n(C)c2C)CCCNC(=O)C(=O)c2c(C)c(C(=O)Nc3ccc(F)c(F)c3)n(C)c2C)c(C)n(C)c1C(=O)Nc1ccc(F)c(F)c1 [Compound 16a] ?
Output line: > 100 µM
